Sourced from paper PMC10825133

Collected AUC values appear next to each entry.
- Test system: MCF-10A cells
- Test Summary: Resazurin-based cell viability assay, monotherapy drug screen
- Parameters: species or system human; scale not given here
- Experimental Conditions: area under the dose response curve, 24 h
Reported Metric: AUC

1. [NH2][Pt]1([NH2])[O]CC(=O)[O]1 [Nedaplatin] : 0.57
2. N.N.[Cl][Pt][Cl] [Cisplatin] : 0.42
3. COC[C@H](NC(=O)c1cnc(C)s1)C(=O)N[C@@H](COC)C(=O)N[C@@H](Cc1ccccc1)C(=O)[C@@]1(C)CO1 [Oprozomib] : 0.79
4. CC1=C(O)C(=O)C=C2C1=CC=C1[C@@]2(C)CC[C@@]2(C)[C@@H]3C[C@](C)(C(=O)O)CC[C@]3(C)CC[C@]12C [Celastrol] : 0.81
